The origin of these recorded values is patent US6437138B1.

Where a name gives a salt, the structure may show the parent alone.
Consider the following molecules; for each one, report its melting point.

Consider the molecule C=CCc1cncc(OC[C@@H]2CCCN2C)c1.Cl.Cl and give its measured melting point.
65 to 67 °C

Item CN1CCC[C@H]1COc1cncc(-c2cccc(N)c2)c1.Cl.Cl has what recorded melting point?
80 to 82 °C

For the molecule shown here, C=CCc1cc(OC[C@@H]2CCN2)cnc1Cl.Cl , give the reported melting point.
90 to 92 °C

What melting point value was documented for this molecule, Cl.Cl.Clc1ncc(OC[C@@H]2CCCN2)cc1-c1cccnc1 ?
195 to 198 °C

Recorded melting point of C=Cc1ncc(OC[C@@H]2CCCN2C)cc1C.Cl , please.
50 °C (dec.)

I would be grateful if you could share the reported melting point for CC(=O)c1cc(OC[C@@H]2CCCN2)cnc1Cl.Cl.Cl .
173 to 176 °C

Which melting point value belongs to C=Cc1cc(OC[C@@H]2CCN2C)cnc1F (hydrate or solvate) ?
156 to 158 °C

Find the recorded melting point belonging to CCCCCCCCC#Cc1cncc(OC[C@@H]2CCCN2C)c1.Cl.Cl and report it.
102 to 105 °C

Fill in: melting point of C=CCc1cc(OC[C@H]2CCCN2)cnc1Cl.Cl is ___
90 to 92 °C

Quick one: melting point for COC(=O)C=Cc1cncc(OC[C@@H]2CCCN2C)c1 (as salt: hydrochloride) [Example 16, Dihydrochloride] ?
128 to 130 °C

I am curious: what melting point value has been reported for CN1CCC[C@H]1COc1cncc(-c2ccco2)c1 (as salt: hydrochloride) [Example 5, Dihydrochloride] ?
189 to 191 °C

Please look up its melting point: Cl.Cl.Clc1ccc(-c2cc(OC[C@@H]3CCCN3)cnc2Cl)cc1
86 to 89 °C

// returns reported melting point for input CN1CCC[C@@H]1COc1cnc(Cl)c(-c2ccc(Cl)cc2)c1 (as salt: hydrochloride)
176 to 178 °C

Which melting point reading was recorded for the molecule CCCCCCC#Cc1cc(OC[C@H]2CCCN2C)cnc1Cl.Cl.Cl ?
114 to 116 °C (dec.)

What melting point value was documented for this molecule, CN1CCC[C@H]1COc1cnc(Cl)c(-c2ccc(Cl)cc2)c1.Cl.Cl ?
183 to 185 °C

Dear colleague, I am looking for the recorded melting point of the following molecule: C=Cc1cncc(OC[C@@H]2CCN2)c1.Cl.Cl
88 to 90 °C

Request the reported melting point associated with CN1CCC[C@H]1COc1cncc(CCc2ccncc2)c1 (as salt: hydrochloride) [Example 29, Trihydrochloride]
148 to 150 °C

I am curious: what melting point value has been reported for C#Cc1cc(OC[C@@H]2CCN2)cnc1Cl.Cl ?
90 °C (dec.)

Reported melting point for CN1CCC[C@H]1COc1cncc(C#CCCCC#N)c1 (as salt: hydrochloride) [Example 14, Dihydrochloride] : what is it?
165 to 167 °C

Looking for the measured melting point of C=Cc1cc(OC[C@@H]2CCCN2)cnc1C=C.Cl , can you help?
186 to 188 °C

For CN1CCC[C@H]1COc1cncc(-c2ccccc2)c1.Cl.Cl , what is its reported melting point?
88 to 90 °C

I would be grateful if you could share the reported melting point for CN1CC[C@H]1COc1cncc(-c2ccccc2)c1.Cl.Cl .
120 to 122 °C

What melting point value was documented for this molecule, C#Cc1cc(OC[C@H]2CCN2)cnc1Cl.Cl ?
155 to 157 °C

Name the recorded melting point for Cl.Cl.Clc1ccc(-c2cncc(OC[C@H]3CCCN3)c2)cc1 .
183 to 185 °C

Endpoint output: melting point of CN1CCC[C@H]1COc1cncc(-c2cc(C(F)(F)F)cc(C(F)(F)F)c2)c1 (as salt: hydrochloride) [Example 37, Dihydrochloride] . Value?
68 to 70 °C

Recorded melting point for Cl.Cl.Cl.Nc1cccc(-c2cncc(OC[C@H]3CCCN3)c2)c1 , please?
240 to 242 °C

Name the recorded melting point for CCCCCCC#Cc1cncc(OC[C@H]2CCCN2C)c1.Cl.Cl .
102 to 105 °C

// query melting point value for entry CC(C)(C)C=CC=Cc1cncc(OC[C@@H]2CCCN2)c1.Cl.Cl
92 to 94 °C

Fill in the blank: the reported melting point of COCCOc1cncc(OC[C@@H]2CCCN2C)c1 (as salt: hydrochloride) [Example 198, Dihydrochloride] is ____.
196 to 197 °C

What value of melting point has been recorded for this entry: CCCCCCC#Cc1cc(OC[C@@H]2CCCN2C)cnc1Cl.Cl.Cl
223 to 225 °C

// query melting point value for entry C=Cc1cc(OC[C@@H]2CCN2C)cnc1C (as salt: salt)
140 to 143 °C

Reported melting point for CC(C)(C)C=CC=Cc1cncc(OC[C@H]2CCCN2)c1.Cl.Cl : what is it?
145 to 147 °C

Given the entry C=Cc1ccc(OC[C@@H]2CCN2)cn1.Cl.Cl , report its measured melting point.
102 to 104 °C

Reported melting point, molecule CN1CCC[C@H]1COc1cncc(-c2cncnc2)c1.Cl.Cl : ____
205 to 220 °C

Form field: reported melting point of Cl.Cl.Clc1ncc(OC[C@@H]2CCCN2)cc1C=Cc1ccncc1
235 to 240 °C

# query: melting point of entry CN1CCC[C@H]1COc1cncc(-c2cc3ccccc3n2C)c1.Cl
195 to 197 °C

---

Target: neuronal nicotinic cholinergic channel receptors (Rattus norvegicus, UniProt P09483+P12390)
Sequence (P09483 31-630): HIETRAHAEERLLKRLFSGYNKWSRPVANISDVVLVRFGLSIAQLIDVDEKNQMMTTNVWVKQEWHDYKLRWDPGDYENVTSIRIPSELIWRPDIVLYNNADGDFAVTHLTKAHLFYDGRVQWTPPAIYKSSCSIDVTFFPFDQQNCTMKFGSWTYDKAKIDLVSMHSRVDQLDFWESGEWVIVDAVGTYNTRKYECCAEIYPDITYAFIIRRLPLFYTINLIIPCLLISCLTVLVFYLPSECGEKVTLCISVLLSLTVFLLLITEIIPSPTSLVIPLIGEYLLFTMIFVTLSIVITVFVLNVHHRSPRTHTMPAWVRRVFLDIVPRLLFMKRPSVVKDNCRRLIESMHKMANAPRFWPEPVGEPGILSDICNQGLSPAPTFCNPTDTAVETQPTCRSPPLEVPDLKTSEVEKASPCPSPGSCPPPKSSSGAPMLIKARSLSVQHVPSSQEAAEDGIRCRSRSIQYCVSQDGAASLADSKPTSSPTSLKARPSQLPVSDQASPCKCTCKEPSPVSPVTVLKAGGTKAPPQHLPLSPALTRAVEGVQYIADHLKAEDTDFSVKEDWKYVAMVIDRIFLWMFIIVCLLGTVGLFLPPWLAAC
Sequence (P12390 25-500): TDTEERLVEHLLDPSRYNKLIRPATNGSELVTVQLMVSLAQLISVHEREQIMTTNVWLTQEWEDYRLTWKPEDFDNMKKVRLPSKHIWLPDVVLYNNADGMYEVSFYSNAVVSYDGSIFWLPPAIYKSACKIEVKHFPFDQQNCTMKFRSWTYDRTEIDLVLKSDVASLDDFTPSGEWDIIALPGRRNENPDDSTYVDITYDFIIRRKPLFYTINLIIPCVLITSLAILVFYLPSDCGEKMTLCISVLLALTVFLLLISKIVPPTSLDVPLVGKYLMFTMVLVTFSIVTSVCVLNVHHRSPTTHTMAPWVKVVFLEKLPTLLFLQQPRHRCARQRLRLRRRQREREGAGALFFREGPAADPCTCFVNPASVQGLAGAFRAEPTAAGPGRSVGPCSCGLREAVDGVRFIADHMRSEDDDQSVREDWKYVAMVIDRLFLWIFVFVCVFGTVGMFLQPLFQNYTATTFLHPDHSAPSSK
Details: displacement of [3H]-cytisine (1.25 nM), whole rat brain membranes; Ki from IC50 by Cheng and Prusoff correction; read-out: Binding Ki
Where a name gives a salt, the structure may show the parent alone.
Please go through the items and note down their pKi.
Friendly reminder that pKi comes from taking -log10 of the concentration in mol/L.

Query: pKi; subject: CC(=O)c1cncc(OC[C@@H]2CCCN2C)c1 [Example 10, Dihydrochloride]
8.92

So what's the measured pKi for this one? CN1CCC[C@H]1COc1cncc(-c2ccc(F)cc2)c1 [Example 11, Dihydrochloride]
9.96

Query (compound): CN1CCC[C@H]1COc1cncc(-c2ccccc2)c1.Cl.Cl [Example 90, Dihydrochloride] ; field requested: pKi
9.95

// query pKi value for entry CN1CCC[C@@H]1COc1cnc(Cl)c(-c2cncnc2)c1 [Example 180, Hydrochloride]
8.32

GET /values?readout=pKi&item= CN1CCC[C@H]1COc1cncc(C(=O)N2CCCC2)c1 [Example 19, Dihydrochloride]
7.70

// returns reported pKi for input CN1CCC[C@H]1COc1cncc(-c2cnc3ccccc3c2)c1 [Example 35, Trihydrochloride]
9.41

Can you share its pKi? I mean this compound: COC(=O)c1cncc(OC[C@@H]2CCCN2C)c1 [Example 27, Dihydrochloride]
8.82

Can you share its pKi? I mean this compound: CN1CCC[C@H]1COc1cncc(-c2cc(C(F)(F)F)cc(C(F)(F)F)c2)c1 [Example 37, Dihydrochloride]
8.62

// query pKi value for entry Cc1ccc(-c2cncc(OC[C@@H]3CCCN3C)c2)cc1.Cl.Cl [Example 41, Dihydrochloride]
9.89

Report pKi for CN1CCC[C@H]1COc1cncc(CCc2ccccc2)c1 [Example 21, Dihydrochloride] please.
9.66

Which measured pKi value corresponds to COc1ccc(-c2cncc(OC[C@@H]3CCCN3C)c2)cc1 [Example 3, Dihydrochloride] ?
9.49

Bench note: what pKi did CN1CCC[C@H]1COc1cncc(C#Cc2ccccc2)c1.Cl.Cl [Example 40, Dihydrochloride] show?
9.80

Param item = CN1CCC[C@H]1COc1cncc(-c2ccc(F)c(Cl)c2)c1 [Example 42, Dihydrochloride] ; retrieve measured pKi.
10.26

Entry under review: CN1CCC[C@H]1COc1cncc(-c2ccc(C(F)(F)F)cc2)c1 [Example 46, Dihydrochloride] . Reported pKi?
9.82

# pKi lookup, item CN1CCC[C@H]1COc1cncc(CCc2ccncc2)c1 [Example 29, Trihydrochloride]
10.19

Need pKi of CN1CCC[C@H]1COc1cncc(-c2ccccc2C=O)c1 [Example 44, Dihydrochloride] , thanks.
9.25

Tell me the measured pKi of CN1CCC[C@H]1COc1cncc(-c2ccc3ccccc3c2)c1 [Example 31, Dihydrochloride] , please.
9.48

---

So I've got a bunch of compounds here, and I need their melting point values.
Structures can show the parent of a compound that is named as a salt.

Dear colleague, I am looking for the recorded melting point of the following compound: COCCOc1cncc(OC[C@@H]2CCCN2)c1.Cl.Cl [Example 197]
182 to 184 °C

Fill in the blank: the reported melting point of COC(=O)c1cncc(OC[C@@H]2CCCN2C)c1 (as salt: hydrochloride) [Example 27, Dihydrochloride] is ____.
165 to 167 °C

Return reported melting point; argument: C=Cc1cc(OC[C@@H]2CCCN2C)cnc1Cl.Cl [Example 192]
182 to 184 °C

Data request, read-out melting point, for C=CCc1cc(OC[C@@H]2CCN2C)cnc1Cl.Cl [Example 179]
109 to 111 °C

What does the data say about its melting point? Entry: Cl.Nc1cccc(-c2cncc(OC[C@@H]3CCCN3)c2)c1 [Example 158]
68 to 70 °C

Give its melting point value. Item: CN1CC[C@H]1COc1cncc(OCc2ccccc2)c1.Cl [Example 200]
132 to 134 °C

Recorded melting point for Clc1ncc(OC[C@@H]2CCN2)cc1-c1ccccc1 (as salt: salt) [Example 67] , please?
148 to 150 °C

# input compound: Cl.Cl.Clc1ncc(OC[C@@H]2CCCN2)cc1-c1ccccc1 [Example 84] ; wanted: its melting point
75 to 80 °C

Entry under review: Cl.Clc1ncc(OC[C@H]2CCCN2)cc1-c1cncnc1 [Example 173] . Reported melting point?
210 °C (dec.)

I would be grateful if you could share the reported melting point for Cl.Clc1ncc(OC[C@H]2CCN2)cc1-c1ccccc1 [Example 186] .
143 to 145 °C

I would be grateful if you could share the reported melting point for C=Cc1cncc(OC[C@@H]2CCCN2)c1.Cl.Cl [Example 164] .
97 °C (dec.)

Given the compound C=Cc1ccc(OC[C@@H]2CCN2C)cn1.Cl.Cl [Example 202] , what is its reported melting point?
105 to 107 °C

Any idea what its melting point is? The compound is Clc1ncc(OC[C@@H]2CCN2)cc1C=Cc1ccncc1 (as salt: citric acid salt) [Example 89]
195 to 197 °C

Which melting point value is on record for C=Cc1cc(OC[C@H]2CCCN2)cnc1Cl.Cl [Example 167] ?
182 to 184 °C

Look up melting point for this compound: CN1CC[C@H]1COc1cnc(Cl)c(-c2ccccc2)c1 (as salt: salt) [Example 68]
187 to 188 °C
